Listing of entries alongside the reported pEC50.
Molecular target: Transient receptor potential cation channel, subfamily V, member 3 (Rattus norvegicus)
Sequence (E9PU00 whole entry): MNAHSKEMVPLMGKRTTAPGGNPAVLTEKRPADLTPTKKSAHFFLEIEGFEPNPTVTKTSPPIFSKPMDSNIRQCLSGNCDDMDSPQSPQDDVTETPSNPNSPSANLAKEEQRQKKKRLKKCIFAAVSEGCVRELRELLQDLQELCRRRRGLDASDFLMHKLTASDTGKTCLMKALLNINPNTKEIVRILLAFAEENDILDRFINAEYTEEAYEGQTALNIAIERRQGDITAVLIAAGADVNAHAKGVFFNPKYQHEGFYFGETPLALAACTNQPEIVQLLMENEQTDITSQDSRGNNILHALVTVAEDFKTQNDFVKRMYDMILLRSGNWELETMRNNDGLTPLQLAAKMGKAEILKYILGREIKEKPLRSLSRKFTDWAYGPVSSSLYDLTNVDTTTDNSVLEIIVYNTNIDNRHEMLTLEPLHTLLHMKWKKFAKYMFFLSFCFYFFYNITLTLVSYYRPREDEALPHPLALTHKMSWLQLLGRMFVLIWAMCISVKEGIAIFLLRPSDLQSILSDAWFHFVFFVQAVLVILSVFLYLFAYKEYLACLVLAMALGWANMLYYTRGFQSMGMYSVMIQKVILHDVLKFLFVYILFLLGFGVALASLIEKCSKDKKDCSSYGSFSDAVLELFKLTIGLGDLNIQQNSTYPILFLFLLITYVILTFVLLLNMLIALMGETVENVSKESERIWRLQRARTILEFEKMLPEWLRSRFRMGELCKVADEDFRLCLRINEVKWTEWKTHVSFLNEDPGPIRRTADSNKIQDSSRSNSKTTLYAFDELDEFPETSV
Test: Agonist activity at recombinant rat TRPV3 expressed in HEK293 cells assessed as increase in intracellular calcium level by Fluo4-AM probe based fluorescence assay
pEC50: −log10 of the molar value.
EXPERIMENTAL_ENDPOINT: pEC50

{"COMPOUND": "CCCc1cc(O)c2c(c1)OC(C)(C)c1ccc(C)cc1-2", "VALUE_REPORTED": 5.46}
{"COMPOUND": "CCCCCc1cc(O)c2c(c1)OC(C)(C)c1ccc(C)cc1-2 [CANNABINOL]", "VALUE_REPORTED": 5.28}

====

Listed below: pEC50 values for each entry.
Biological target: Transient receptor potential cation channel subfamily V member 2 (Rattus norvegicus, UniProt Q9WUD2)
Sequence (Q9WUD2 whole entry): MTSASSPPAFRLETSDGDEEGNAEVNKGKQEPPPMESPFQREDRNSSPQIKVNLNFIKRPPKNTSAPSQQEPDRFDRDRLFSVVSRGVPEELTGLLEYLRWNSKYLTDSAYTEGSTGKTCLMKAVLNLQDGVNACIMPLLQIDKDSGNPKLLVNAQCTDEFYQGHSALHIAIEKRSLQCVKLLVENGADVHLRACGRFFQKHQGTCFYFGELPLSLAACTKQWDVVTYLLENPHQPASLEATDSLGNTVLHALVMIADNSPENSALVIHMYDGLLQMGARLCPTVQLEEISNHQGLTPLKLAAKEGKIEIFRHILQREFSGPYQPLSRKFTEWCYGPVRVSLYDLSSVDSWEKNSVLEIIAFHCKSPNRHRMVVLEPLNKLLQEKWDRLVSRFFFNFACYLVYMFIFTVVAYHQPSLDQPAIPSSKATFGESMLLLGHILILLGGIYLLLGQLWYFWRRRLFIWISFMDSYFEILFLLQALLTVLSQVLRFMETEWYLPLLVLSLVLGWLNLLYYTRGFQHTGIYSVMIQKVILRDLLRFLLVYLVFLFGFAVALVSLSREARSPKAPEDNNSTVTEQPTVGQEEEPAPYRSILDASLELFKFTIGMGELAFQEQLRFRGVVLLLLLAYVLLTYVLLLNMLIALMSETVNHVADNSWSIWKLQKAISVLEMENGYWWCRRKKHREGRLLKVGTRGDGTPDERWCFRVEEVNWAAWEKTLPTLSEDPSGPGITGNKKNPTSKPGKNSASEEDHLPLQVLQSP
Assay: Agonist activity at recombinant rat TRPV2 expressed in HEK293 cells assessed as increase in intracellular calcium level by Fluo4-AM probe based fluorescence assay
pEC50: −log10 of the molar value.

{"STRUCTURE": "CCCc1cc(O)c2c(c1)OC(C)(C)c1ccc(C)cc1-2", "pEC50": 5.51}
{"STRUCTURE": "CCCCCc1cc(O)c2c(c1)OC(C)(C)c1ccc(C)cc1-2", "pEC50": 4.72}

====

Molecular target: Transient receptor potential cation channel subfamily M member 8 (Rattus norvegicus)
Sequence (Q8R455 whole entry): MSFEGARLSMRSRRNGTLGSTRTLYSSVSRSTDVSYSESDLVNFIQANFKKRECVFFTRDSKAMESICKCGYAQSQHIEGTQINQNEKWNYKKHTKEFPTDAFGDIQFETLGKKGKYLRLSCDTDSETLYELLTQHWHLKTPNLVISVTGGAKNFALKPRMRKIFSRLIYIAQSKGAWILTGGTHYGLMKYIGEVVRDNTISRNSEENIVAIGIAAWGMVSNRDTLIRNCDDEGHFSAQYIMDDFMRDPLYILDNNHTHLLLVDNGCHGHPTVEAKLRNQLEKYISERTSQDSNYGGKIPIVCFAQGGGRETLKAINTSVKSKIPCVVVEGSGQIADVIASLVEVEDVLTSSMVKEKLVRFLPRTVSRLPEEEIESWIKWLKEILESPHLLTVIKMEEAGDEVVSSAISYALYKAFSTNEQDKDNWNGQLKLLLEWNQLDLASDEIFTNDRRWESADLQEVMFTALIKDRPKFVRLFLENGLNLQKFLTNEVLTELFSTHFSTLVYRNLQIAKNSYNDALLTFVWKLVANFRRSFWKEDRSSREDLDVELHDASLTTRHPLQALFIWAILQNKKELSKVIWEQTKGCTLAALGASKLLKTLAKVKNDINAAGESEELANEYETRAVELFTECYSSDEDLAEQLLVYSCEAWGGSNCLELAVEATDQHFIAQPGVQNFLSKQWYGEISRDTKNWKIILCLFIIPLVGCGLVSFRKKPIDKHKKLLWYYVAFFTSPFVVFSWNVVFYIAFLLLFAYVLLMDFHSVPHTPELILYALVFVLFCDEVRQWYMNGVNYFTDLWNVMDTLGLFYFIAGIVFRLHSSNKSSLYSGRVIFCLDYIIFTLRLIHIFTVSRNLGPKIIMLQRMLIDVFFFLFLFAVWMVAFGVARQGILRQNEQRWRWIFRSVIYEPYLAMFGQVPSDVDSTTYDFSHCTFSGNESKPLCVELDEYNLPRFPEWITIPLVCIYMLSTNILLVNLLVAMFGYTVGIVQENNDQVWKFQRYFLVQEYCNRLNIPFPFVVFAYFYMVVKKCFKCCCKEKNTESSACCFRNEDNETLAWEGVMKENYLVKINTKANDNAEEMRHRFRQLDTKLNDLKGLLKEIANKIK
Assay: Antagonist activity at recombinant rat TRPM8 expressed in HEK293 cells assessed as inhibition of icilin-induced intracellular calcium level incubated for 5 mins followed by agonist stimulation by Fluo4-AM probe based fluorescence assay
EXPERIMENTAL_ENDPOINT: IC50 (nM)

{"COMPOUND": "CCCc1cc(O)c2c(c1)OC(C)(C)c1ccc(C)cc1-2", "VALUE_REPORTED": 500}
{"COMPOUND": "CCCCCc1cc(O)c2c(c1)OC(C)(C)c1ccc(C)cc1-2 [CANNABINOL]", "VALUE_REPORTED": 210}

====

Target: Cannabinoid receptor 2 (Homo sapiens, UniProt P34972)
Sequence (P34972 whole entry): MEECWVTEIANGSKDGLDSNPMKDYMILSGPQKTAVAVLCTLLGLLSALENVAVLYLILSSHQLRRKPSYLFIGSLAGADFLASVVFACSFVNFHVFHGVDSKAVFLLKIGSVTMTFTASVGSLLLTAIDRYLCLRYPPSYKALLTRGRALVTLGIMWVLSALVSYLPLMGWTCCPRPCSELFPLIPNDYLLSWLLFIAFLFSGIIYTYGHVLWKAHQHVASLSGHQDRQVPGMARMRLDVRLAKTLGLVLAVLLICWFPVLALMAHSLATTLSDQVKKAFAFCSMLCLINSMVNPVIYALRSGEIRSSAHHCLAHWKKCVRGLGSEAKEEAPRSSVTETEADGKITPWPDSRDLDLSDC
Assay: Displacement of 3H-CP-55940 from recombinant full length human CB2 receptor expressed in HEK293 cell membranes after 90 mins by topcount scintillation counting analysis
pEC50: −log10 of the molar value.
EXPERIMENTAL_ENDPOINT: pEC50

{"STRUCTURE": "CCCCCc1cc(O)c2c(c1)OC(C)(C)c1ccc(C)cc1-2", "TESTED_ON": "Cannabinoid receptor 2 (Homo sapiens, UniProt P34972)", "EXPERIMENTAL_ENDPOINT": "pEC50", "VALUE_REPORTED": 7.14}
{"STRUCTURE": "CCCc1cc(O)c2c(c1)OC(C)(C)c1ccc(C)cc1-2", "TESTED_ON": "Cannabinoid receptor 2 (Homo sapiens, UniProt P34972)", "EXPERIMENTAL_ENDPOINT": "pEC50", "VALUE_REPORTED": 5.32}
